System: MDA-MB-231 breast
assayOverview: NCI-60 one-dose screen, 48 h (100 = growth as untreated, 0 = no growth, -100 = all killed)
testParameters: 10 µM unless noted
About 83,000 compounds went through this panel and 20% of them were active in at least one assay; those are over-represented in the sample as a whole.
Classify by growth. Ranges: band A: < 50%; band B: ≥ 50% and < 80%; band C: ≥ 80%

{"compound": "Cc1[c-]onc1C.Cc1[c-]onc1C.[Ag].[Ag].[NH-]S(=O)(=O)c1ccc(N=Nc2cc(N=Nc3ccc(S([NH-])(=O)=O)cc3)c3c(NC(=O)C(Cl)Cl)cccc3c2OC(=O)C(Cl)Cl)cc1", "label": "band A"}
{"compound": "COc1ccc2nc(-c3cc(-c4cc(OC)c(OC)c(OC)c4)n[nH]3)[nH]c2c1", "label": "band A"}
{"compound": "Nc1ccc(Cl)cn1", "label": "band C"}
{"compound": "Cn1cc(-c2csc(-c3c[nH]c4ccccc34)n2)c2cccnc21", "label": "band A"}
{"compound": "COc1ccc2c(c1)C(Br)=C(CCO)C2c1ccccc1 (stereo not drawn)", "label": "band B"}
{"compound": "C=C(C)[C@@H]1CC[C@]2(C(=O)N3CCN(C)CC3)CC[C@]3(C)[C@H](CC[C@@H]4[C@@]5(C)C/C(=C/c6ccc(C(F)(F)F)cc6)C(=O)C(C)(C)[C@@H]5CC[C@]43C)[C@@H]12", "label": "band C"}
{"compound": "COc1cccc(-c2nn(-c3ccccc3)cc2-c2ccnc(NCCCNS(=O)(=O)c3ccc(Cl)cc3)c2)c1", "label": "band A"}
{"compound": "COc1ccc(C2=NN(c3nc(-c4ccc(OC)cc4)c(C#N)c(=O)n3C)C(=O)CC2)cc1", "label": "band C"}
{"compound": "Nc1c(Cl)cc(N=Nc2ccccc2)cc1Cl", "label": "band C"}
{"compound": "COc1cnc2c(c1)C(=O)c1c-2n(CCCNC2=NCCS2)c(=O)c2cc([N+](=O)[O-])ccc12", "label": "band A"}
{"compound": "COc1ccc(-c2nc3ccccn3c2-c2nc3ccc(Cl)cc3[nH]2)cc1", "label": "band C"}
{"compound": "O=C(Nc1ccc(/C=C2\\SC(=O)N(Cc3ccc(OC(F)(F)F)cc3)C2=O)cc1)c1ccc(Cl)c([N+](=O)[O-])c1", "label": "band B"}
{"compound": "COc1cc(-c2cc3ncccc3c3nc(N)c4cccnc4c23)cc(OC)c1OC", "label": "band A"}
{"compound": "COc1cccc(-c2nn(-c3ccccc3)cc2-c2ccnc(NCCCNS(=O)(=O)c3ccc(C(F)(F)F)cc3)c2)c1", "label": "band A"}
{"compound": "COc1cc(-c2c(C#N)c(-c3cccs3)nc3c2c(-c2ccccc2)nn3-c2ccccc2)ccc1O", "label": "band C"}
{"compound": "Clc1ccc(Cn2cc(-c3nc4ccc(Br)nc4n3Cc3ccc(Cl)cc3)c3cccnc32)cc1", "label": "band B"}
{"compound": "S=c1[nH]nc2ccccn12", "label": "band C"}
{"compound": "Cn1cc(-c2csc(-c3cn(CCN)c4ccc(Br)cc34)n2)c2cccnc21", "label": "band B"}

###

Test system: A498 renal
assayOverview: NCI-60 one-dose screen, 48 h (100 = growth as untreated, 0 = no growth, -100 = all killed)
testParameters: 10 µM unless noted
The panel holds about 83,000 compounds, 20% with a hit somewhere; the sample as a whole holds those more often.
Category scheme (growth): 1 (below 70%), 2 (70% to below 90%), 3 (90% or more)

{"compound": "COc1cccc(-c2nn(-c3ccccc3)cc2-c2ccnc(NCCCNS(=O)(=O)c3ccccc3)c2)c1", "label": 1}
{"compound": "CCC(=O)c1c(C)[nH]c(C)c1C", "label": 3}
{"compound": "Brc1ccc2c(c1)c(-c1nc(-c3c[nH]c4ncccc34)cs1)cn2CCCN1CCCCC1", "label": 2}
{"compound": "CCN1CCN(C(=O)[C@@]2(C)CC[C@]3(C)CC[C@]4(C)C(=CC(=O)[C@@H]5[C@@]6(C)CC[C@H](OC7C[C@@H](O)[C@@H](O)C(C)O7)C(C)(C)[C@@H]6CC[C@]54C)[C@@H]3C2)CC1 (stereo partly specified)", "label": 3}
{"compound": "O=C1Nc2ccccc2/C1=C/c1cn(CCCn2c3ccccc3c(=O)c3ccccc32)c2ccccc12", "label": 3}
{"compound": "COc1cccc2c1C(=O)c1c(O)c3c(c(O)c1C2=O)C[C@@](O)(C(=O)CO)C[C@@H]3OC1C[C@H](N)[C@H](O)[C@H](C)O1 (stereo partly specified)", "label": 1}
{"compound": "C=C(C)[C@@H]1CC[C@]2(C(=O)N3CCN(C)CC3)CC[C@]3(C)[C@H](CC[C@@H]4[C@@]5(C)C/C(=C/c6ccc(C(F)(F)F)cc6)C(=O)C(C)(C)[C@@H]5CC[C@]43C)[C@@H]12", "label": 3}
{"compound": "COC(=O)[C@]12CC[C@@H](C)[C@H](C)[C@@H]1C1=CC[C@@H]3[C@@]4(C)C[C@@H](OC(C)=O)[C@H](OC(C)=O)[C@@](C)(COC(C)=O)[C@@H]4[C@H](O)C[C@@]3(C)[C@]1(C)CC2", "label": 1}
{"compound": "Cn1cc(-c2csc(-c3cn(CCCN4CCCCC4)c4ccc(F)cc34)n2)c2cccnc21", "label": 2}
{"compound": "COc1cc(-c2cc(-c3nc4cc(Cl)c(Cl)cc4[nH]3)[nH]n2)cc(OC)c1OC", "label": 1}
{"compound": "Fc1cccc(-c2[nH]nc3nc(Nc4cccnc4)sc23)c1", "label": 2}
{"compound": "COC(=O)[C@]12CC[C@@H](C)[C@H](C)[C@@H]1C1=CC[C@@H]3[C@@]4(C)C[C@@H](O)OC[C@](C)(C=O)C4C(=O)C[C@@]3(C)[C@]1(C)CC2 (stereo partly specified)", "label": 1}
{"compound": "COc1cccc(-c2nn(-c3ccccc3)cc2-c2ccnc(NCCCNS(=O)(=O)c3cccc(F)c3)c2)c1", "label": 1}
{"compound": "CCOC(=O)C/C(=C\\c1ccccc1)C(C)=O", "label": 3}
